Experimental Target: UniProt Q96KQ7
Method Summary: Competitive inhibition of recombinant human G9a using biotinylated-Histone H3 peptide (1 to 21 residues) as substrate at varying concentration after 30 mins in presence SAM by Lineweaver-Burk plot analysis
pKi: −log10 of the molar value.
Assay Metric: pKi

Smiles Text	Experimental Target	Quantitative Result
COc1cc2c(cc1OCCCN1CCCC1)N=C(C1CCCCC1)CN=C2NC1CCN(C(C)C)CC1	UniProt Q96KQ7	7.86

###

metabolised at 1 h by entry:
Method Summary: Metabolic stability in human liver microsomes assessed as parent compound turn over percentage at 1 mM preincubated for 5 mins followed by NADPH addition and measured for 60 mins by UHPLC analysis
Type: ADME, Microsome
Run Conditions: read-out: Drug metabolism

Smiles Text	metabolised at 1 h
COc1cc2c(cc1OCCCN1CCCC1)N=C(C1CCCCC1)CN=C2NC1CCN(C(C)C)CC1	2.25%
COc1cc2c(NC3CCN(C(C)C)CC3)nc(C3CCCCC3)nc2cc1OCCCN1CCCC1	2.93%

###

Experimental Target: Histone-lysine N-methyltransferase EHMT2 (Homo sapiens, UniProt Q96KQ7)
Sequence (Q96KQ7 whole entry): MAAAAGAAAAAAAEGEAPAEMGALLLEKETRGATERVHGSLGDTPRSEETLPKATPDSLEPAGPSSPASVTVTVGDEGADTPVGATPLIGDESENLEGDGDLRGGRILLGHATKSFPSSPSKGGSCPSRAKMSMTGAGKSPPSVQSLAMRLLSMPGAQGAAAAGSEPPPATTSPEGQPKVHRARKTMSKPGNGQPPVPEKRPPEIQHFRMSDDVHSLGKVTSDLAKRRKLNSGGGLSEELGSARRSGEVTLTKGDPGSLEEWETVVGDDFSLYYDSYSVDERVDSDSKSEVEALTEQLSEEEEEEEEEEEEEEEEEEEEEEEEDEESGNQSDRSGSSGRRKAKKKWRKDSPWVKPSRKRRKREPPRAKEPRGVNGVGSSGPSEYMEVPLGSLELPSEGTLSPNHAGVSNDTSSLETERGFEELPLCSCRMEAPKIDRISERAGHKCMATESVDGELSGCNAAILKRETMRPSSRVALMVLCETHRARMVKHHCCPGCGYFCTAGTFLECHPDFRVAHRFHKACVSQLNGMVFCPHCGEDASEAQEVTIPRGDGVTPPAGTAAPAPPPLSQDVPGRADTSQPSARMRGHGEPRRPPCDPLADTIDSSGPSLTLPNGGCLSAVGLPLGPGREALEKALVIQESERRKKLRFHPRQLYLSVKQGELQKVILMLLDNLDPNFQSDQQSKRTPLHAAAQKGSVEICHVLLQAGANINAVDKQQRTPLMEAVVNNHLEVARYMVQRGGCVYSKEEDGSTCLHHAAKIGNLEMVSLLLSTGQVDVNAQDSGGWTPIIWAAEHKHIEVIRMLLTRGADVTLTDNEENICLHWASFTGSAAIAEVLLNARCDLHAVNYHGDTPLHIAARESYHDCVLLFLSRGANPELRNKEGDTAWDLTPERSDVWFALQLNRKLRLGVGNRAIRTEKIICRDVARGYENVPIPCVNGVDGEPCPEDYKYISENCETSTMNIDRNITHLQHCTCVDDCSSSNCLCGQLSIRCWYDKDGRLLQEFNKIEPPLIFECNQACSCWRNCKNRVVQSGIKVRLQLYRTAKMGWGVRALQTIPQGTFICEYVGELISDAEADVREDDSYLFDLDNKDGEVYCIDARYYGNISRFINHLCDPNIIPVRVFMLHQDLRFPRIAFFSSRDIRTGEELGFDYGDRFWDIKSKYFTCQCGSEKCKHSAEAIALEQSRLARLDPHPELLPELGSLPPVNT
Method Summary: Inhibition of recombinant human G9a using biotinylated-Histone H3 peptide (1 to 21 residues) after 30 mins in presence of SAM by AlphaLISA assay
pIC50: −log10 of the molar value.
If the reported pIC50 equals or exceeds 6, assign 1. If not, assign -1.

Compound	Assigned Label
COc1cc2c(cc1OCCCN1CCCC1)N=C(C1CCCCC1)CN=C2NC1CCN(C(C)C)CC1	1
COc1cc2c(cc1OCCCN1CCCC1)N=C(C1CCCCC1)CC(NC1CCN(C(C)C)CC1)=N2	-1
COc1cc2c(cc1OCCCN1CCCC1)NC(c1ccccc1)CN=C2NC1CCN(C(C)C)CC1 (stereo not given)	-1
